- system_under_test: recombinant human DPPIV (Homo sapiens (Human))
- Sequence (P27487 whole entry): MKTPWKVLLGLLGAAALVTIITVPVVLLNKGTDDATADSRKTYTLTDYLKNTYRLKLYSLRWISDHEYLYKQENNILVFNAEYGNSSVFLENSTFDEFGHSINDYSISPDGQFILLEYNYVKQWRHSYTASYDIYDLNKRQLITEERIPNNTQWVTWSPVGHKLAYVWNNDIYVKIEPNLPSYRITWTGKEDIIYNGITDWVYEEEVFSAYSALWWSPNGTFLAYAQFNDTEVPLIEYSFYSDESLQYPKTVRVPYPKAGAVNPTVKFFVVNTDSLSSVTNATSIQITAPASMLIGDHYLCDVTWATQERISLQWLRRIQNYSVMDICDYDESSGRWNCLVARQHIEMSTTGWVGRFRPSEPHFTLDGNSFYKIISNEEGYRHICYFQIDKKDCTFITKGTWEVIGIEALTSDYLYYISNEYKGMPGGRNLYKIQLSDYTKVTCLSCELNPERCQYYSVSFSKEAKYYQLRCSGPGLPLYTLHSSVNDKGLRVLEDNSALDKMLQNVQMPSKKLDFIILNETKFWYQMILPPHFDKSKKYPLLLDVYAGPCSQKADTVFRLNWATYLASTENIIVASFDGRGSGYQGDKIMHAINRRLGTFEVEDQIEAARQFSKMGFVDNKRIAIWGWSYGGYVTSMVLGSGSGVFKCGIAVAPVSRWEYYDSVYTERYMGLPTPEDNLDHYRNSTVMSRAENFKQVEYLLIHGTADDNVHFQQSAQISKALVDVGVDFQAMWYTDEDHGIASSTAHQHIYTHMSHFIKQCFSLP
- assay_comment: In vitro inhibition assay, dipeptidyl peptidase IV
- run_parameters: Gly-Pro-AMC substrate, read-out: DPP4
value_kind: IC50 (nM)

P: CC(C)C[C@H](N)C(=O)N1CCC[C@H]1B(O)O
Q: N[C@@H](CCC(=O)O)C(=O)N1CCC[C@H]1B(O)O
Compare IC50: is it lower for P or for Q ? # reply format: chosen label
Q

I: CC(C)[C@H](N)C(=O)N1CCC[C@H]1C(=O)CO
II: O=C([C@@H]1CCCN1)N1CCC[C@H]1B(O)O
Compare IC50: is it lower for I or for II ? # reply format: chosen label
II
(II: 1.3 nM, I: 4.5 nM)

Where do these numbers come from? They come from patent US11559537B2.
